FYI, the data here is from patent US20220177604A1.

- TEST TARGET: recombinant Motavizumab human IgE (rMota-hIgE) (human) (UniProt P01854)
- Sequence (P01854 other isoform, or with tags, fused parts or gaps limits assumed, form in doubt): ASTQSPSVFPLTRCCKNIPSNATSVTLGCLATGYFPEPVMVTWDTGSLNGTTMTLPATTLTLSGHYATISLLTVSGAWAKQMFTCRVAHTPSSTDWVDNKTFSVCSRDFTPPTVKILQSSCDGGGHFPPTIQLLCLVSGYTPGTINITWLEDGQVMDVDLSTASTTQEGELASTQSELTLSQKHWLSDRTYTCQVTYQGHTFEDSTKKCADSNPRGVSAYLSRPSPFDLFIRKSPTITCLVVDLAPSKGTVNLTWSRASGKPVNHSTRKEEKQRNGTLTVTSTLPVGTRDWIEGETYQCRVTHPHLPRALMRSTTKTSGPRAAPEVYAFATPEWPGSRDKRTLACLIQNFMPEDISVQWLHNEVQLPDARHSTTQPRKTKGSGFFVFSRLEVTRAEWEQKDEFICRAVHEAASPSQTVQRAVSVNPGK
- EXPERIMENTAL DETAILS: hIgE binding ELISA
PARAMETER: Ratio OD450 pH 7.4/pH 6
Numbers only.

Below: 2 binders and their reported Ratio OD450 pH 7.4/pH 6.
BINDER	Ratio OD450 pH 7.4/pH 6
CL-2C mAb 27 (antibody, V domains shown) VH: QVQLVQSGAEVMKPGSSVKVSCKASGYTFSWYHLEWVRQAPGHGLEWMGEIDPGTFTTNYNEKFKARVTFTADTSTSTAYMELSSLRSEDTAVYYCARFSHFSGSNHDYFDYWGQGTLVTVSS VL: EIVMTQSPATLSVSPGERATLSCRASQSIGTNIHWYQQKPGQAPRLLIYHASESISGIPARFSGSGSGTEFTLTISSLQSEDFAVYYCQQSWSWPTTFGGGTKVEIK	19.4
CL-2C mAb 16 (antibody, V domains shown) VH: QVQLVQSGAEVMKPGSSVKVSCKASGYTFSWYWLEWVRQAPGHGLEWMGEIDPGTFTTHYNEKFKARVTFTADTSTSTAYMELSSLRSEDTAVYYCARFSHFSGSHYDYFDYWGQGTLVTVSS VL: EIVMTQSPATLSVSPGERATLSCRASQSIGTNIHWYQQKPGQAPRLLIYHASESISGIPARFSGSGSGTEFTLTISSLQSEDFAVYYCQQSDSHPTTFGGGTKVEIK	2.24

Asked: Form field: reported Ratio OD450 pH 7.4/pH 6 of CL-2C mAb 33 (antibody, V domains shown) VH: QVQLVQSGAEVMKPGSSVKVSCKASGYTFSWYHLEWVRQAPGHGLEWMGEIDPGTFTTNYNEKFKARVTFTADTSTSTAYMELSSLRSEDTAVYYCARFSHFSGSHYDYFDYWGQGTLVTVSS VL: EIVMTQSPATLSVSPGERATLSCRASQSIGTNIHWYQQKPGQAPRLLIYYASESISGIPARFSGSGSGTEFTLTISSLQSEDFAVYYCQQSWSHPTTFGGGTKVEIK
Given back: 2.61
